- measurementConditions: in ethanol, 308.15 K

{"columns": ["testSmiles", "solubility (mole fraction)"],
 "data": [
  ["CC(=O)Oc1ccc(C(c2ccc(OC(C)=O)cc2)c2ccccn2)cc1", 0.00149]
]}

###

- measurementConditions: in isopropanol, 298.15 K

{"columns": ["testSmiles", "solubility (mole fraction)"],
 "data": [
  ["CC(=O)Oc1ccc(C(c2ccc(OC(C)=O)cc2)c2ccccn2)cc1", 0.000443]
]}

###

- measurementConditions: in THF, 288.15 K
reportedMetric: solubility (mole fraction)

{"columns": ["testSmiles", "valueMeasured"],
 "data": [
  ["CC(=O)Oc1ccc(C(c2ccc(OC(C)=O)cc2)c2ccccn2)cc1", 0.0192]
]}

Data origin, for the record: BigSolDB 2.1
